Assign TGI to each entry below.
system: NCI-H522 lung; assay: NCI tumour cell line growth inhibition, 48 h
One number for each entry, in µM.

Completed entries (count: 5):
| compound | TGI [µM] |
| --- | --- |
| C[C@]12CC[C@@H]3c4cc(OC(F)F)c(OS(N)(=O)=O)cc4CC[C@H]3[C@@H]1CC[C@@H]2O | 14.8 |
| Nc1nc(Nc2ccccc2SSc2ccccc2Nc2nc(N)nc(C(Cl)(Cl)Cl)n2)nc(C(Cl)(Cl)Cl)n1 | 10.3 |
| c1ccc(-c2nc(N3CCNCC3)c3oc(-c4ccccc4)nc3n2)cc1 | 4.51 |
| c1ccc2cc(-c3n(Cc4ccc5ccccc5n4)c4ccccc4[n+]3Cc3ccc4ccccc4n3)ccc2c1 | 1.25 |
| O=C(N/N=C/c1ccc([N+](=O)[O-])cc1)Nc1ccc(C(=O)O)cc1 | 58 |

Batch: TGI for all items listed.
1. Oc1ccc2cc(Br)ccc2c1-c1c(O)ccc2ccc(Br)cc12
2. Cc1ccc(NC(=O)CC2C(=O)Nc3ccccc3S2(=O)=O)c(C)c1 (centres undefined)
3. CCCCCCNC(=O)Oc1ccc(/C(=C(\C)c2ccc(Cl)cc2)c2ccc(OCCN3CCCCC3)cc2)cc1
4. CC1=NN(c2nc(N)nc(/C(C#N)=C\c3csc([N+](=O)[O-])c3)n2)C(C)(C)C1
5. CC1OC(OC2C(O)CC(OC3C(O)CC(OC4CCC5(C)C(CCC6C5CC(O)C5(C)C(C7=CC(=O)OC7)CCC65O)C4)OC3C)OC2C)CC(O)C1O (centres undefined)
6. O=C1C(Cl)C2(CC(/C=C/c3ccccc3)=NN2c2cccc(S(=O)(=O)O)c2)N1c1nc2ccccc2s1 (centres undefined)
7. O=[N+]([O-])c1ccc(N2CCOCC2)c2c1no[n+]2[O-]

Response:
[29.9, 23.6, 13, 50.1, 0.0639, 20.1, 2.33]

Batch: TGI for all items listed.
1. O=C1CSC2(CC(/C=C/c3cccc([N+](=O)[O-])c3)=NN2c2cccc(S(=O)(=O)O)c2)N1c1nc2ccccc2s1 (centres undefined)
2. O=C1c2sccc2-c2cccc3cccc1c23 (tested in a mixture with another compound)
3. COC(=O)c1cncc(/C=C/c2c(C)cc(O)cc2C)c1
4. COc1ccc(Oc2cccc(C3C4C(=O)N(c5ccc(C)c(Cl)c5)C(=O)C4ON3C(C(N)=O)c3ccccc3)c2)cc1 (centres undefined)
5. [N-]=[N+]=NI1OC(=O)c2ccccc21

Response:
1: 34.1; 2: 57.1; 3: 17.1; 4: 32.6; 5: 40.6
